# credit: patent US20240417469A1

molecular target: human CD3 on cells (human PBMC; Jurkat TCR/CD3 NFAT reporter cells) (human, UniProt P07766 23-207; P04234 22-171; P09693 23-182); assay: cell-based or functional assay
Sequence (P07766 23-207, chain 1 of 3): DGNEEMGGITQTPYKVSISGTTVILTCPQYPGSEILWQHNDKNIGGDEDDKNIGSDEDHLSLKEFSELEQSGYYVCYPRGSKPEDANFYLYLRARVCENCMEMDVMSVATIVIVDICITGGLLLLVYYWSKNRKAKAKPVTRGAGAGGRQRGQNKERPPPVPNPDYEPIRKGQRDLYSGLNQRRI
Sequence (P04234 22-171, chain 2 of 3): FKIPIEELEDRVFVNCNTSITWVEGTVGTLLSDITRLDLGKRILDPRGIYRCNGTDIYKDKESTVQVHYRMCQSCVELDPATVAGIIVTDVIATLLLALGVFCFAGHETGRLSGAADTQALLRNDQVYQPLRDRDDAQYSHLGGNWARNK
Sequence (P09693 23-182, chain 3 of 3): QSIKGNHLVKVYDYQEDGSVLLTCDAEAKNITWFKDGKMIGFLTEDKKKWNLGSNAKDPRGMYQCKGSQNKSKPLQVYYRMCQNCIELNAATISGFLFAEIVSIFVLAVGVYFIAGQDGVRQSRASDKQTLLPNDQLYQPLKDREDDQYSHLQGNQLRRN
Metric Name: % of SP34 (%)

- Hu153A6B1-1 (antibody, V domains shown, humanized mAb) VH: EVQLQESGPGLVKPSETLSLTCTVSGGSISSYNIHWIRQPPGKGLEWIGRIRYNGDTSYNSALKSRVTISVDTSKNQFSLKLSSVTAADTAVYYCARGPYGGSREPLFDYWGQGTMVTVSS VL: DIQMTQSPSSLSASVGDRVTITCKTSQNINKYLNWYQQKPGKAPKLLIYTTNNLQTGVPSRFSGSGSGTDFTLTISSLQPEDFATYYCLQHGSGYTFGQGTKLEIK: 19.8
- Hu153A6B1-2 (antibody, V domains shown, humanized mAb) VH: EVQLQESGPGLVKPSETLSLTCTVSGGSISSYNIHWVRQPPGKGLEWIGRIRYNGDTSYNSALKSRVTISRDTSKNQFSLKLSSVTAADTAVYYCARGPYGGSREPLFDYWGQGTMVTVSS VL: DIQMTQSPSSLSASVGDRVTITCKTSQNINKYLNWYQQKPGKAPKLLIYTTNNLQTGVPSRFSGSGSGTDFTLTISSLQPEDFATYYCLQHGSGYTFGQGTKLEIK: 42.6
- Hu153A6B1-16 (antibody, V domains shown, humanized mAb) VH: EVQLQESGPGLVKPSETLSLTCTVSGGSISSYNIHWVRQPPGKGLEWMGRIRYNGDTSYNSALKSRLTISRDTSKNQFSLKLSSVTAADTAVYYCTRGPYGGSREPLFDYWGQGTMVTVSS VL: DIQMTQSPSSLSASVGDRVTITCKTSQNINKYLNWFQQKPGKAPKLLIYTTNNLQTGIPSRFSGSGSGTDFTLTISSLQPEDFATYFCLQHGSGYTFGQGTKLEIK: 71.9
